# target-under-test: Cbl-b (Homo sapiens (Human))
# assay-method-text: Cbl-b LCK Ub TR-FRET assay (Cbl-b Lck HTRF)
# Format: biochemical
# assay-context: Cbl-b LCK Ub TR-FRET
pIC50: −log10 of the molar value.
measured-parameter: pIC50

INSERT INTO assay_data (compound, numeric_value) VALUES
  ('Cn1cnnc1C(c1cccc(N2Cc3c(cc(CNC4(C)CCC4)cc3C(F)(F)F)C2=O)c1)[C@H]1C[C@@H](CC#N)C1 (single isomer, unassigned) [Compound 365]', 8.32),
  ('Cn1cnnc1[C@@H](c1cccc(N2Cc3c(cc(CNC4(C)CCC4)cc3C(F)(F)F)C2=O)c1)C1CC2(COC2)C1', 5.85),
  ('Cn1cnnc1[C@@H](c1cccc(N2Cc3c(cc(CNC4(C)CCC4)cc3C(F)(F)F)C2=O)c1)[C@H]1C[C@H](C)C1 (single isomer, unassigned)', 8.03),
  ('CC(C)[C@H]1CN(C)CCN1Cc1cc2c(c(C(F)(F)F)c1)CN(c1cc([C@]3(c4nncn4C)C[C@H](C)C3)cc(NC3CCCC3)n1)C2=O (single isomer, unassigned)', 7.77),
  ('CO[C@H]1C[C@H]([C@@H](c2cccc(N3Cc4c(cc(CN5CCN(C)C[C@@H]5C(C)C)cc4C(F)(F)F)C3=O)c2)c2nncn2C)C1 (single isomer, unassigned) [Compound 12]', 7.92);

I: CCOc1cc(N2Cc3c(cc(CNC4(C)CCC4)cc3C(F)(F)F)C2=O)cc([C@]2(c3nncn3C)C[C@@H](OC)C2)c1
II: C[C@@H]1C[C@](c2cccc(N3Cc4c(cc(CNC5(C)CCC5)cc4C(F)(F)F)C3=O)c2)(c2nncn2C)O1
III: COC1CC([C@@H](c2cccc(N3Cc4c(cc(CNC5(C)CCC5)cc4C(F)(F)F)C3=O)c2)c2nncn2C)C1 (single isomer, unassigned) [Compound 133]
Request: Order field: pIC50 | Direction: descending (largest first) # answer = labels listed in requested order
Result: I, II, III

* * *

# target-under-test: Cbl-b (Homo sapiens (Human))
# assay-method-text: Cbl-b LCK Ub TR-FRET assay (Cbl-b Lck HTRF)
# Assay type: biochemical
# assay-context: ratio C-cbl Lck HTRF IC50 / Cbl-b Lck HTRF IC50
measured-parameter: fold-selectivity (Cbl-b over C-cbl) (x)

See these solved cases before continuing.
INSERT INTO results (compound, measured_parameter, numeric_value) VALUES
  ('Cn1cnnc1[C@](C)(O)c1cccc(N2Cc3c(cc(CNC4(C)CCC4)cc3C(F)(F)F)C2=O)c1 [Compound 305]', 'fold-selectivity (Cbl-b over C-cbl)', 1.0),
  ('Cn1cnnc1[C@@H](c1cccc(N2Cc3c(cc(CNC4(C)CCC4)cc3C(F)(F)F)C2=O)c1)C1CC1 (single isomer, unassigned) [Compound 342]', 'fold-selectivity (Cbl-b over C-cbl)', 1.2),
  ('Cn1cnnc1[C@@H](CC1CCC1)c1cccc(N2Cc3c(cc(CNC4(C)CCC4)cc3C(F)(F)F)C2=O)c1 [Compound 269]', 'fold-selectivity (Cbl-b over C-cbl)', 4.0);

a: Cn1cnnc1[C@H](c1cccc(N2Cc3c(cc(CNC4(C)CCC4)cc3C(F)(F)F)C2=O)c1)C1CC(OC(F)F)C1 (single isomer, unassigned) [Compound 389]
b: CC(=O)N(C)[C@@H](c1cccc(N2Cc3c(cc(CNC4(C)CCC4)cc3C(F)(F)F)C2=O)c1)c1nncn1C (single isomer, unassigned) [Compound 400]
Request: Determine, for a and b , which has the greater value of fold-selectivity (Cbl-b over C-cbl). Give the label under which the chosen entry appears.
Result: a
(a: 1.7 x, b: 1.0 x)

* * *

# target-under-test: Cbl-b (Homo sapiens (Human), UniProt Q13191)
# assay-method-text: Cbl-b LCK Ub TR-FRET assay (Cbl-b Lck HTRF)
# Type: biochemical
# assay-context: Cbl-b LCK Ub TR-FRET
pIC50: −log10 of the molar value.
measured-parameter: pIC50

Examples from the recorded data:
INSERT INTO results (molecule, numeric_value) VALUES
  ('Cn1cnnc1[C@]1(c2cc(NC3CCC3)nc(N3Cc4c(cc(CNC5(C)CCC5)cc4C(F)(F)F)C3=O)c2)C[C@@H](C)C1', 8.07),
  ('CO[C@H]1C[C@@](c2cc(NCCC#N)cc(N3Cc4c(cc(CNC5(C)CCC5)cc4C(F)(F)F)C3=O)c2)(c2nncn2C)C1', 7.70),
  ('Cc1cc([C@@H](c2nncn2C)C2COC2)cc(N2Cc3c(cc(CNC4(C)CCC4)cc3C(F)(F)F)C2=O)c1 (single isomer, unassigned)', 7.41),
  ('CCNc1cc([C@]2(c3nncn3C)C[C@H](C)C2)cc(N2Cc3c(cc(CNC4(C)CCC4)cc3C(F)(F)F)C2=O)c1F', 8.13);

A: Cn1cnnc1[C@H](c1cccc(N2Cc3c(Cl)cc(CNC4(C)CCC4)cc3C2=O)c1)[C@H]1C[C@H](F)C1 (single isomer, unassigned)
B: Cn1cnnc1C(c1cccc(N2Cc3c(cc(CNC4(C)CCC4)cc3C(F)(F)F)C2=O)c1)C1CC(F)(F)C1 (racemic)
Request: Problem: Given the entries A and B , determine which has the lower reported pIC50. Identify your selection by its label.
Result: B
(B: 7.12, A: 8.25)

* * *

# target-under-test: Cbl-b (Homo sapiens (Human), UniProt Q13191)
# assay-method-text: Cbl-b LCK Ub TR-FRET assay (Cbl-b Lck HTRF)
# Format: biochemical
# assay-context: ratio C-cbl Lck HTRF IC50 / Cbl-b Lck HTRF IC50
measured-parameter: fold-selectivity (Cbl-b over C-cbl) (x)

INSERT INTO assay_data (molecule, measured_parameter, numeric_value) VALUES
  ('CCNc1cc(N2Cc3c(cc(CNC4(C)CCC4)cc3C(F)(F)F)C2=O)cc([C@]2(c3nncn3C)C[C@H](OC)C2)c1', 'fold-selectivity (Cbl-b over C-cbl)', 1.3),
  ('Cn1cnnc1[C@]1(c2cccc(N3Cc4c(cc(CNC5(C)CCC5)cc4C(F)F)C3=O)c2)C[C@H](F)C1', 'fold-selectivity (Cbl-b over C-cbl)', 1.9);

I: Cn1cnnc1[C@@H](c1cccc(N2Cc3c(cc(CNC4(C)CCC4)cc3C(F)(F)F)C2=O)c1)[C@H]1C[C@H](OC(F)(F)F)C1 (single isomer, unassigned)
II: COC1CC([C@H](c2cccc(N3Cc4c(cc(CNC5(C)CCC5)cc4C(F)(F)F)C3=O)c2)c2nncn2C)C1 (single isomer, unassigned) [Compound 131]
III: Cn1cnnc1C(c1cccc(N2Cc3c(cc(CNC4(C)CCC4)cc3C(F)(F)F)C2=O)c1)[C@H]1C[C@H](Cl)C1 (single isomer, unassigned) [Compound 355]
Request: Which order do these items take when sorted by rising fold-selectivity (Cbl-b over C-cbl)? List them. // respond by listing labels in the order requested
Result: I, II, III
(I: 2.1 x, II: 7.4 x, III: 13 x)

* * *

# target-under-test: Cbl-b (Homo sapiens (Human), UniProt Q13191)
# assay-method-text: Cbl-b LCK Ub TR-FRET assay (Cbl-b Lck HTRF)
# Assay type: biochemical
# assay-context: ratio C-cbl Lck HTRF IC50 / Cbl-b Lck HTRF IC50
measured-parameter: fold-selectivity (Cbl-b over C-cbl) (x)

Examples with their reported fold-selectivity (Cbl-b over C-cbl) follow.
INSERT INTO results (compound, target_under_test, numeric_value) VALUES
  ('Cn1nnnc1[C@H](c1cccc(N2Cc3c(cc(CNC4(C)CCC4)cc3C(F)(F)F)C2=O)c1)C1COC1 (single isomer, unassigned) [Compound 349]', 'Cbl-b (Homo sapiens (Human), UniProt Q13191)', 1),
  ('CO[C@H]1C[C@@](c2cc(NC(C)C)cc(N3Cc4c(cc(CNC5(C)CCC5)cc4C(F)(F)F)C3=O)c2)(c2nncn2C)C1 [Compound 223]', 'Cbl-b (Homo sapiens (Human), UniProt Q13191)', 1.4);

1: Cl.Cn1cnnc1[C@]1(c2cccc(N3Cc4c(cc(CNC5(C)CCC5)cc4C(F)(F)F)C3=O)c2)C[C@@H](Cl)C1 [Compound 137]
2: CO[C@H]1C[C@@](c2cc(NC3COC3)cc(N3Cc4c(cc(CNC5(C)CCC5)cc4C(F)(F)F)C3=O)c2)(c2nncn2C)C1 [Compound 243]
Request: Please indicate which has the smaller reported fold-selectivity (Cbl-b over C-cbl): 1 , or 2 . Please indicate the selected item by its label.
Result: 1

* * *

# target-under-test: Human Cbl-b (residues 40-426) (Homo sapiens (Human), UniProt Q13191)
# Sequence (Q13191 40-426): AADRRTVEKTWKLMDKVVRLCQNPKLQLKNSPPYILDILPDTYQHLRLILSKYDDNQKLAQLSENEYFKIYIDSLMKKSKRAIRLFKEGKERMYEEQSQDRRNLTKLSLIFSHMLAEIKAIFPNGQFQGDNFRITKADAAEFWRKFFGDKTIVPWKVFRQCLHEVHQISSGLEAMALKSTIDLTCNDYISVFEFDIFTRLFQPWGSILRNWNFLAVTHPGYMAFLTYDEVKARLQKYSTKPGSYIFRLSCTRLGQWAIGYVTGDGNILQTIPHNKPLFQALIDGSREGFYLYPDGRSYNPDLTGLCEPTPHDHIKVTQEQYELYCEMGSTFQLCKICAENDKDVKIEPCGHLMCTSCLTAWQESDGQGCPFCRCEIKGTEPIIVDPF
# assay-method-text: Cbl-b SPR assay
# Type: binding
# assay-context: C-cbl SPR Kd vs Cbl-b SPR Kd
measured-parameter: Fold of selectivity (×)

INSERT INTO measurements (molecule, target_under_test, numeric_value) VALUES
  ('CO[C@H]1C[C@H]([C@@H](c2cccc(N3Cc4c(cc(CN5CCN(C)C[C@@H]5C(C)C)cc4C(F)(F)F)C3=O)c2)c2nncn2C)C1 (single isomer, unassigned) [Compound 12]', 'Human Cbl-b (residues 40-426) (Homo sapiens (Human), UniProt Q13191)', 5);

A: CO[C@H]1C[C@](c2cc(OC(C)C)cc(N3Cc4c(cc(CNC5(C)CCC5)cc4C(F)(F)F)C3=O)c2)(c2nncn2C)C1
B: CO[C@H]1C[C@@](c2cc(NC3CCC3)cc(N3Cc4c(cc(CNC5(C)CCC5)cc4C(F)(F)F)C3=O)c2)(c2nncn2C)C1
Request: Between the entries labeled A and B , whose measured Fold of selectivity is lower? # answer = label of selected item
Result: A
(A: 2.6 ×, B: 13 ×)
